All figures here come from ChEMBL document CHEMBL1817613.

- STUDY TARGET: HIF-1alpha (Homo sapiens)
- MEASUREMENT NOTES: Inhibition of HIF1alpha activation in human HeLa cells stimulated with deferoxamine by luciferase reporter gene assay
MEASURED QUANTITY: IC50 (nM)
The figure you give is taken to be in nM; do not add the unit.

| COMPOUND | IC50 / nM |
| --- | --- |
| C/C=C(\C)[C@H](O)[C@H](C)/C=C(C)/C=C/CC(C)/C=C/c1oc(OC)c(C)c(=O)c1C (some centres not stated) | 470 |

Now look at this one.
What value of IC50 has been recorded for this entry: C/C=C(\C)C(O[C@@H]1O[C@H](CO)[C@@H](O)[C@H](O)[C@H]1O)C(C)/C=C(C)/C=C/CC(C)/C=C/c1oc(OC)c(C)c(=O)c1C (some centres not stated)
60
